# subject_of_test: Receptor tyrosine-protein kinase erbB-2 (Homo sapiens)
# assay_remarks: Inhibition of HER2 (unknown origin) assessed as remaining ATP level measured after 15 mins by luminescence analysis
endpoint_label: IC50

Provide IC50 value for the following compound: O=C(CCCCCCn1cc(-c2ccc3ncnc(Nc4ccc(OCc5cccc(F)c5)c(Cl)c4)c3c2)nn1)NO
16.4 nM

Give recorded IC50. Cc1ccc(Oc2ccc(Nc3ncnc4ccc(-c5cn(CCCCCCC(=O)NO)nn5)cc34)cc2C)cn1
> 1000 nM

Specify measured IC50 for Cc1ccc(Oc2ccc(Nc3ncnc4ccc(-c5cn(CCCCCC(=O)NO)nn5)cc34)cc2C)cn1 .
> 1000 nM

Report measured IC50; entry is O=C(CCCCCn1cc(-c2ccc3ncnc(Nc4ccc(OCc5nccs5)c(Cl)c4)c3c2)nn1)NO
537 nM

Name the recorded IC50 of the compound listed here: COc1cc(Nc2ncnc3ccc(-c4cn(CCCCCCC(=O)NO)nn4)cc23)ccc1Oc1ccccc1
> 1000 nM

Return the recorded IC50 value; entry: O=C(CCCCCCn1cc(-c2ccc3ncnc(Nc4cccc(Cl)c4F)c3c2)nn1)NO
175 nM

Specify IC50 for O=C(CCCCCn1cc(-c2ccc3ncnc(Nc4cccc(Cl)c4F)c3c2)nn1)NO and stop.
386 nM

---

Below are pIC50 values measured for Epidermal growth factor receptor (Homo sapiens).
Units for pIC50: none; it is -log10 of a concentration expressed in mol/L.

// Input: O=C(CCCCCCn1cc(-c2ccc3ncnc(Nc4ccc(F)c(Cl)c4)c3c2)nn1)NO . Output its pIC50 only.
9.16

Name the recorded pIC50 of the compound listed here: O=C(CCCCCCn1cc(-c2ccc3ncnc(Nc4ccc(OCc5cccc(F)c5)c(Cl)c4)c3c2)nn1)NO
8.38

Recall and state the measured pIC50 for O=C(CCCCCn1cc(-c2ccc3ncnc(Nc4cccc(Cl)c4F)c3c2)nn1)NO .
9.57

---

# subject_of_test: Epidermal growth factor receptor (Homo sapiens)
# Sequence (P00533 whole entry): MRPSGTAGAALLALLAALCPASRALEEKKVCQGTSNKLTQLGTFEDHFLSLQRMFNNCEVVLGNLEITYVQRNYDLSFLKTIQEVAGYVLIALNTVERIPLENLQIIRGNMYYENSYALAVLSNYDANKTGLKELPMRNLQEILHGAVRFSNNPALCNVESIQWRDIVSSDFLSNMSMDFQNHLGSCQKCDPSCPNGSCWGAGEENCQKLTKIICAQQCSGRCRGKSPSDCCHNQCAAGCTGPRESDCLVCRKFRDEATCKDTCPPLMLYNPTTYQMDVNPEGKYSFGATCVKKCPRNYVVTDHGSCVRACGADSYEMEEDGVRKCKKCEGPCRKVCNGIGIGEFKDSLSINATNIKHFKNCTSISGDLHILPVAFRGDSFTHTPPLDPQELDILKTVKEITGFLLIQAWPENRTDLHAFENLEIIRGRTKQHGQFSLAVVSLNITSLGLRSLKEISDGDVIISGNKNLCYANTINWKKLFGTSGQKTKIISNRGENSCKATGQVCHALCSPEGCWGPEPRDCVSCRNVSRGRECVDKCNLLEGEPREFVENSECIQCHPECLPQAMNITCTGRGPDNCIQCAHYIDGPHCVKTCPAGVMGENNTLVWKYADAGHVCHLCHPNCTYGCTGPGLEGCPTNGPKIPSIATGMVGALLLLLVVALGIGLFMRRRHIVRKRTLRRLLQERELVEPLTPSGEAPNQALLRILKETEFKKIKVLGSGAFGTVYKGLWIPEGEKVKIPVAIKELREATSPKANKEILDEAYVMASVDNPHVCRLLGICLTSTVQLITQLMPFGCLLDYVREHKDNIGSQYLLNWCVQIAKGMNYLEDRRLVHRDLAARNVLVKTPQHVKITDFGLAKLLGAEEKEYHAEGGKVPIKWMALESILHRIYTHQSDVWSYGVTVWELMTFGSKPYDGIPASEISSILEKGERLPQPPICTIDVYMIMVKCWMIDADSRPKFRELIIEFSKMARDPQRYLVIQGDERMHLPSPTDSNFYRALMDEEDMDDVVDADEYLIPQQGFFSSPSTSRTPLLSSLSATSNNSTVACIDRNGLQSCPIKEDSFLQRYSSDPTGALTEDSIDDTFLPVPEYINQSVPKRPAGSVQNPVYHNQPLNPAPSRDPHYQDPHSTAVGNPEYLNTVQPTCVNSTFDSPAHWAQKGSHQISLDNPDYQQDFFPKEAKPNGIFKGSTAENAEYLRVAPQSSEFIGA
# assay_remarks: Inhibition of EGFR (unknown origin)
endpoint_label: IC50 (nM)
Just the number please, in nM, no unit attached.

Report its IC50 with Epidermal growth factor receptor (Homo sapiens) as the test system: C[C@@H]1COC(Nc2ccc3ncnc(Nc4ccc(OCc5nccs5)c(Cl)c4)c3c2)=N1
7

---

# subject_of_test: Receptor tyrosine-protein kinase erbB-2 (Homo sapiens, UniProt P04626)
# Sequence (P04626 whole entry): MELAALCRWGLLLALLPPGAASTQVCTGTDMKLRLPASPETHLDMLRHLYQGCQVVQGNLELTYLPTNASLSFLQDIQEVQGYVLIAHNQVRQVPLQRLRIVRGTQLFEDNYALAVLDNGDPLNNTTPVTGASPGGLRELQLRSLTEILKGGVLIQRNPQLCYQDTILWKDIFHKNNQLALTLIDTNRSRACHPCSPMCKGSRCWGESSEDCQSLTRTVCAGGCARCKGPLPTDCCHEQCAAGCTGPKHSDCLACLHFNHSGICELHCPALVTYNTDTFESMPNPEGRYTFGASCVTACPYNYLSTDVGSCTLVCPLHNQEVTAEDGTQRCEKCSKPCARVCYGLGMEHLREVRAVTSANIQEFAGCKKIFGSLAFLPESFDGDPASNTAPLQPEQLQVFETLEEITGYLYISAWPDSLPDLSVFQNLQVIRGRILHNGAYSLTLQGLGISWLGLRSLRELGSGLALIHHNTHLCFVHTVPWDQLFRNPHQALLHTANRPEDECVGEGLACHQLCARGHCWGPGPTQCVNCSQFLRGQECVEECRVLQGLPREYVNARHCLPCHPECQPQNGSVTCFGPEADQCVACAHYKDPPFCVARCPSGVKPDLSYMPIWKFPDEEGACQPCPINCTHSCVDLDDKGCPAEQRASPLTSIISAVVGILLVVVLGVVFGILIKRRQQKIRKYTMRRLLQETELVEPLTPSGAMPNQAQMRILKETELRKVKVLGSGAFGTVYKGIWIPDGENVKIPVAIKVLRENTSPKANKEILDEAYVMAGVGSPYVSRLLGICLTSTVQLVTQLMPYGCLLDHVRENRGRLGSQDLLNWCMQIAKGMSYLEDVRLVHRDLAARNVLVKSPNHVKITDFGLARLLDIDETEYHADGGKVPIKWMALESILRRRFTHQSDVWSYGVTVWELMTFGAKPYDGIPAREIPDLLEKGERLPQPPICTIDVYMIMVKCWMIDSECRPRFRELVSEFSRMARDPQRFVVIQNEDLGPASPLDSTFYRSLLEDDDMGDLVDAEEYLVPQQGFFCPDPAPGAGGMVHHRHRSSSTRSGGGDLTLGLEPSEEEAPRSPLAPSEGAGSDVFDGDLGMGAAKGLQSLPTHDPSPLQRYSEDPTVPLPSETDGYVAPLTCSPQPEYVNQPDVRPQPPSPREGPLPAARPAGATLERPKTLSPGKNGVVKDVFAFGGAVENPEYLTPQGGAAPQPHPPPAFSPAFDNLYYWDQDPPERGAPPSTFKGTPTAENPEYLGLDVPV
# assay_remarks: Inhibition of HER2 (unknown origin)
endpoint_label: IC50 (nM)
Respond with the bare value in nM.

Note IC50 for the molecule shown: C[C@@H]1COC(Nc2ccc3ncnc(Nc4ccc(OCc5nccs5)c(Cl)c4)c3c2)=N1
2

---

# subject_of_test: Histone deacetylase 1 (Homo sapiens, UniProt Q13547)
# Sequence (Q13547 whole entry): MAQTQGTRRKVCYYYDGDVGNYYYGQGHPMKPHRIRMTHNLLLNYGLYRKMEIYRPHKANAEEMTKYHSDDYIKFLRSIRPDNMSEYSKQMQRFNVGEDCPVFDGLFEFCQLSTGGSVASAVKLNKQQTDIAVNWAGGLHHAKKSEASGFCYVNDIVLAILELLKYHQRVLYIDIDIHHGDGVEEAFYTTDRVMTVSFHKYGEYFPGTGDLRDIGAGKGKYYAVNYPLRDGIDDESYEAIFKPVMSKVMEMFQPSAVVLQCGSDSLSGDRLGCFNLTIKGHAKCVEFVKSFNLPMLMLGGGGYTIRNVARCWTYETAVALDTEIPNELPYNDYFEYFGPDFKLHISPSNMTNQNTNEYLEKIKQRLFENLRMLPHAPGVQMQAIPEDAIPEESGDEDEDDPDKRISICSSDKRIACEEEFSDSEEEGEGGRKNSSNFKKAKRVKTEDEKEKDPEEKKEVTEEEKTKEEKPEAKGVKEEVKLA
endpoint_label: pIC50
pIC50 here is simply -log10 of the concentration when that concentration is written in mol/L.

Provide only the value of recorded pIC50 for O=C(CCCCCCn1cc(-c2ccc3ncnc(Nc4ccc(OCc5cccc(F)c5)c(Cl)c4)c3c2)nn1)NO
8.08

Give recorded pIC50. Cc1ccc(Oc2ccc(Nc3ncnc4ccc(-c5cn(CCCCCCC(=O)NO)nn5)cc34)cc2C)cn1
8.28

Tell me pIC50 reported for O=C(CCCCCn1cc(-c2ccc3ncnc(Nc4ccc(OCc5cccc(F)c5)c(Cl)c4)c3c2)nn1)NO
7.41

---

# subject_of_test: UniProt P04626
# assay_remarks: Inhibition of HER2 (unknown origin) assessed as remaining ATP level measured after 15 mins by luminescence analysis
endpoint_label: pIC50
The meaning of pIC50 here: minus log10 of the concentration in molar units.

Query pIC50 for O=C(CCCCCCn1cc(-c2ccc3ncnc(Nc4ccc(F)c(Cl)c4)c3c2)nn1)NO
6.75

Specify reported pIC50 for the compound shown: O=C(CCCCCCn1cc(-c2ccc3ncnc(Nc4ccc(OCc5nccs5)c(Cl)c4)c3c2)nn1)NO
6.15

In one line, give reported pIC50 of the entry O=C(CCCCCn1cc(-c2ccc3ncnc(Nc4ccc(OCc5cccc(F)c5)c(Cl)c4)c3c2)nn1)NO .
6.71

Return pIC50 for the following compound: O=C(CCCCCn1cc(-c2ccc3ncnc(Nc4ccc(F)c(Cl)c4)c3c2)nn1)NO
6.78
